System tested: Fes (UniProt P07332)
Sequence (P07332 whole entry, looked up): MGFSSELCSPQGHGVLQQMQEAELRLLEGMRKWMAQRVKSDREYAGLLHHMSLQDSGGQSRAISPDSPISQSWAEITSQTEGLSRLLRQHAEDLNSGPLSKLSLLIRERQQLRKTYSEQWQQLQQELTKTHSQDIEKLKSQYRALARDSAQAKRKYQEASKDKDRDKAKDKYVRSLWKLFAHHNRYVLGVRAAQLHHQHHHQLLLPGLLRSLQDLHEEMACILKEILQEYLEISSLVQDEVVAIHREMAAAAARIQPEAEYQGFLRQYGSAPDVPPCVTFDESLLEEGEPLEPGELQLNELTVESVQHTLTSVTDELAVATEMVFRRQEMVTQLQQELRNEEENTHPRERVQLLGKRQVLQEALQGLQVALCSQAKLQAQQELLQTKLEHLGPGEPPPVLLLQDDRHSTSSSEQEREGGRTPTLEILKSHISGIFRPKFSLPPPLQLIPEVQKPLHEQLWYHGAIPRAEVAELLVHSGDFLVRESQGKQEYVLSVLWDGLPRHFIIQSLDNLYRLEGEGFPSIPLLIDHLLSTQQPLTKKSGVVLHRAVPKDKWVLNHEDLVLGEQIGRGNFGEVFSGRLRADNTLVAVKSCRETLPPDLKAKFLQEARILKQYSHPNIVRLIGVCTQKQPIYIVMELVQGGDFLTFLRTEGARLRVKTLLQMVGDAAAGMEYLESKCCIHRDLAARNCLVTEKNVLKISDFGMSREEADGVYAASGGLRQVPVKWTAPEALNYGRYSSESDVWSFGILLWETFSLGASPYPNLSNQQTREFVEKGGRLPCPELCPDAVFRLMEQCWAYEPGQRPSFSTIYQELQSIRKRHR
Method summary: phosphorylation enrichment, bacterial display (enrichment ratio); higher = better substrate or ligand; peptides without Tyr show the background;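 note: 11-residue human phosphosite peptides and single-mutation variants displayed on the E. coli surface, counted by deep sequencing, each peptide's frequency after selection divided by its frequency in the unselected input library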;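 note: frequency after pTyr selection over input frequency; kinase dosed for 20-30% of maximal phosphorylation in three min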
Observable: phosphorylation enrichment
No unit in the answer, only the number.

Below: 6 sequences and their reported phosphorylation enrichment.
{"columns": ["Seq text", "phosphorylation enrichment"],
 "data": [
  ["SNKELYEKYMI", 0.802],
  ["EAVKNYTEKRG [PBRM1_Y672_D674E]", 0.514],
  ["RFLRGYHQDAY [HLA-A_Y137_R138H]", 0.772],
  ["RHPREYQDLLN [DES_Y388_L385P]", 0.545],
  ["FADIAYNYRHG [PAH_Y166]", 0.887],
  ["SVTCTYSPAVN [TP53_Y126_L130V]", 1.71]
]}

Could you now consider this next sequence?
**Q:** Fill in the blank: the reported phosphorylation enrichment of KFDLMYAKLAF [TUBA1A_Y399_R402L] is ____.
**A:** 1.13
